Taken from PubChem BioAssay (NCI).

Listed here are compounds together with their documented TGI.
test system: EKVX NSCLC; assay: NCI tumour cell line growth inhibition, 48 h

1) CCOC(=O)CNC(=O)c1ccccc1Nc1ccnc(C(F)(F)F)c1 ... > 96 µM
2) Cc1ccc(S(=O)(=O)OCC(=O)O)cc1 ... > 100 µM
3) CC(=O)c1ccc2c3c1[C@@H]1O[C@@H]1c1cccc(c1-3)[C@@H]1O[C@H]21 ... 39.5 µM

Requested field: TGI. Item: `Cc1ccc(-c2cc(N)n(-c3nc4c(c(=O)n(C)c(=O)n4C)n3C)n2)cc1`
> 100 µM

Requested field: TGI. Item: `O=C(O)c1ccc(S(=O)(=O)c2ccccc2[N+](=O)[O-])cc1`
> 10 µM

Requested field: TGI. Item: O=C1OC2(OC2c2ccccc2)c2ccccc21 (configuration not stated)
> 100 µM

Requested field: TGI. Item: `O=c1[nH]cnc2cccc(Cl)c12`
> 100 µM

Requested field: TGI. Item: `Cc1ccc2c(=O)cc(-c3cccs3)[nH]c2n1`
> 100 µM

Requested field: TGI. Item: `CCn1nc2c3c(ncn3C(C)(C)O2)c1=O`
> 100 µM

Requested field: TGI. Item: `N#C/C(=C\n1ccc(=O)[nH]c1=S)C(N)=O`
> 100 µM

Requested field: TGI. Item: `N=C(N)SCc1cccc(-c2nc3ccccc3c(=O)o2)c1`
> 100 µM

Requested field: TGI. Item: `C1CNCCNCCN1`
> 100 µM

====

tested on: HOP-62 NSCLC; experiment: NCI tumour cell line growth inhibition, 48 h; in the data active = GI50 below about 0.43 µM; inactive = the rest
Allowed answers: true (1) for active, false (0) for inactive

# example entries with known answers
1. N.N.N.N.[Cl-].[Co+3].[N-]=[N+]=[N-].[N-]=[N+]=[N-] ... false (0)
2. O=C(Nc1ccc(CO)cc1)c1coc2ccccc2c1=O ... false (0)
3. CC(C)S(=O)(=O)c1ccccc1Nc1nc(Nc2cccc(NC(=O)CN)c2)ncc1Cl ... true (1)

Entry `O=C(Nc1ccc(Br)cc1)c1ccc(Cl)c(Cl)c1` : call = ?
false (0)

Entry `COc1cc2c3c(n(CCCN(C)C)c(=O)c2cc1OC)-c1ccccc1C3=O` : call = ?
false (0)

Entry `COc1ccc(-c2oc3cc(O)c(OC)c(O)c3c(=O)c2OC)cc1O` : call = ?
true (1)

Entry `COc1ccc(-c2ccc(/C=N/n3c(C)n[nH]c3=S)o2)c([N+](=O)[O-])c1` : call = ?
false (0)

Entry `COCCOc1cnc2ccn([C@H](C)c3nnc4c(F)cc(-c5cnn(C)c5)cn34)c(=O)c2c1` : call = ?
false (0)

Entry `Cc1cc(S(=O)(=O)N/N=C(\Sc2cc(Cl)c(C)cc2S(N)(=O)=O)c2ccc(Cl)cc2)c(Cl)cc1Cl` : call = ?
false (0)

Entry Cc1cc(C2CC(O)C(CO)O2)cc2c(=O)[nH]c(N)nc12 (stereo not given) : call = ?
false (0)

====

test system: UACC-257 melanoma; experiment: NCI tumour cell line growth inhibition, 48 h
assayReadout: TGI

1. CC(=O)O[C@H]1C#C/C=C\C#CC[C@@H]2C(=O)N[C@@H]12 ... > 100 µM

Requested field: TGI. Item: CCCC(C)NC1=C(NC(C)=O)C(=O)c2ccccc2C1=O (stereo not drawn)
> 100 µM

Requested field: TGI. Item: `O=C(NCCCCCCNCc1cccc2ccccc12)Nc1cccc2ccccc12`
> 100 µM

Requested field: TGI. Item: `N=C(N)SCc1cccc(-c2nc3ccccc3c(=O)o2)c1`
> 100 µM

Requested field: TGI. Item: O=C1NC(N/N=C/C(O)C(O)C(O)CO)=N/C1=C\c1ccco1 (stereo not drawn)
> 100 µM

Requested field: TGI. Item: CC12CCCCC1(C)C2Sc1ccccc1 (stereo not drawn)
> 100 µM

Requested field: TGI. Item: `Oc1cc(C2OCCCO2)cc(O)c1O`
> 100 µM

Requested field: TGI. Item: `COc1ccc2c(O)cc3c(c2c1)[C@H](CCl)CN3C(=O)c1cc2cc(NC(=O)CCN3CCOCC3)ccc2[se]1`
0.00319 µM

Requested field: TGI. Item: `Cc1ccc(/C(O)=C/C(=O)C(=O)/C=C(\O)c2ccc(C)cc2C)c(C)c1`
3.21 µM

====

tested on: PC-3 prostate; experiment: NCI tumour cell line growth inhibition, 48 h; in the data active means GI50 below about 0.43 µM; inactive means the rest
Allowed answers: T = active, F = inactive

# example entries with known answers
1. COc1ccc2c(O)cc3c(c2c1)[C@H](CCl)CN3C(=O)c1cc2cc(NC(=O)CCN3CCOCC3)ccc2[se]1 ... T
2. CCOC(=O)CNC(=O)c1ccccc1Nc1ccnc(C(F)(F)F)c1 ... F
3. NC(CS/C(Cl)=C/Cl)C(=O)O (stereo not given) ... F
4. Nc1nc(SN=Nc2ccc(S(N)(=O)=O)cc2)c2[nH]cnc2n1 ... F

Entry `CC(C)S(=O)(=O)c1ccccc1Nc1nc(Nc2cccc(NC(=O)CN)c2)ncc1Cl` : call = ?
T

====

system: A549 NSCLC; assay: NCI tumour cell line growth inhibition, 48 h
assayReadout: TGI

The following compounds have reported results that may help.
1) Nc1c(Cl)ncnc1N[C@@H]1C[C@H]1CO ... > 100 µM
2) NCCN=C(Nc1ccccc1)Nc1ccccc1 ... > 100 µM
3) Nc1nc(SN=Nc2ccc(S(N)(=O)=O)cc2)c2[nH]cnc2n1 ... > 100 µM
4) CN(C)Cc1cc(C(=O)/C=C/c2ccccc2Cl)cc(CN(C)C)c1O ... 38.7 µM

Requested field: TGI. Item: `CCn1nc2c3c(ncn3C(C)(C)O2)c1=O`
> 100 µM

Requested field: TGI. Item: `COc1cc(C)c2c(c1C)OC(=O)c1c(C)c(Cl)c(O)c(C=O)c1O2`
44.3 µM

Requested field: TGI. Item: `CCOC(=N)CC(=O)Nc1cccc(C)c1C`
> 100 µM

Requested field: TGI. Item: CCCCC1(CN2CCOCC2)S/C(=N/c2nc(CC(=O)OCC)cs2)NC1=O (stereo not drawn)
> 100 µM

Requested field: TGI. Item: `NC1=NS(=O)(=O)Nc2nc(-c3ccc([N+](=O)[O-])cc3)[nH]c21`
> 100 µM

Requested field: TGI. Item: `CCN1C(=O)C(=C/C=C/c2ccc([N+](=O)[O-])cc2)C(=O)N(CC)C1=S`
> 100 µM

Requested field: TGI. Item: `CC1=NN2C(=N)/C(=C/c3ccco3)C(=O)N=C2S1`
> 100 µM

Requested field: TGI. Item: `[Au+].[Au+].[Au+].[c-]1nccn1Cc1ccccc1.[c-]1nccn1Cc1ccccc1.[c-]1nccn1Cc1ccccc1`
65.4 µM

Requested field: TGI. Item: `COc1ccc2[nH]c3c4c(ccc3c2c1)C(=O)C=CC4=O`
62.8 µM

Requested field: TGI. Item: `COc1ccc(OC)c2c(/C=C/c3ccc(N(C)C)cc3)ccnc12`
> 10 µM

====

Listed here are molecules together with their documented GI50.
system: SW-620 colon; assay: NCI tumour cell line growth inhibition, 48 h

1) Cc1cn2c(/C=C3\C(=O)N(C)c4ccc(O)cc43)c(C)nc2s1 ... 3.67 µM
2) NC(CS/C(Cl)=C/Cl)C(=O)O (stereo unspecified) ... 39.8 µM
3) C[C@]12CCc3nc(Nc4ccccc4)sc3C1=CC[C@@H]1[C@@H]2CC[C@]2(C)/C(=N/NC(N)=S)CC[C@@H]12 ... 3.09 µM
4) NC(N)=NCCCCCNc1noc(Cc2c[nH]c3cc(Br)ccc23)n1 ... 20 µM

Proceeding to the next molecule to report its GI50.
Requested field: GI50. Item: `Oc1cn(-c2ccc(Cl)cc2)nc1-c1n[nH]c(=S)n1C1CCCCC1`
0.475 µM

====

test system: A549 NSCLC; test: NCI tumour cell line growth inhibition, 48 h
assayReadout: TGI

The following compounds have reported results that may help.
1. COc1ccc2c(c1)[C@@]13CCCC[C@H]1[C@@H](C2)N(C)CC3=O ... 41 µM
2. Cc1cc(C)c(C2[C@H]3C(=O)N(c4ccc(Cc5ccc(N6C(=O)[C@@H]7ON(c8ccccc8)C(c8c(C)cc(C)cc8C)[C@@H]7C6=O)cc5)cc4)C(=O)[C@H]3ON2c2ccccc2)c(C)c1 (stereo partly drawn) ... > 100 µM
3. O=C1c2ccccc2C(=O)N1Cc1ccccc1-c1c2nc(c(-c3ccccc3CN3C(=O)c4ccccc4C3=O)c3ccc([nH]3)c(-c3ccccc3CN3C(=O)c4ccccc4C3=O)c3nc(c(-c4ccccc4CN4C(=O)c5ccccc5C4=O)c4ccc1[nH]4)C=C3)C=C2 ... > 100 µM
4. Cn1cc(C2=C(c3cn(CCCCCN)c4ccccc34)C(=O)NC2=O)c2ccccc21 ... > 25 µM
5. CCOC(=O)/C=C(\C(=O)OCC)n1cc(C)c(=O)n(Cc2cnnn2CCCCOC(C)=O)c1=O ... 60.7 µM

Requested field: TGI. Item: `CCn1c(CO)nn(-c2cc(O[C@@H](C)C(F)(F)F)c(C(=O)Nc3c(F)cccc3Cl)cc2F)c1=O`
> 100 µM

Requested field: TGI. Item: `Cc1cc(NS(=O)(=O)c2ccc(Nc3c4ccccc4nc4c(C(=O)NCCN(C)C)cccc34)cc2)no1`
71 µM

Requested field: TGI. Item: `CCOC(=O)c1ccc(N2C(=S)N(C(=O)c3ccccc3)C(=Nc3ccccc3)C2=Nc2ccccc2)cc1`
> 100 µM
